Molecular target: FKBP12 (Homo sapiens)
Experiment: FKBP12 Binding Assay: inhibition of FKBP rotomase activity (cis-N-succinyl-Ala-Ala-Pro-Phe-p-nitroanilide / chymotrypsin), apparent Ki
Assay type: biochemical
Settings: Table 2, formula II', compound 0.1 nM-10 μM
Exercise: state measured pKi for each of the molecules provided.
Numbers only, as −log10 of the molar value.

Study these solved cases before continuing.
Q. Hello, please tell me recorded pKi for this one: COc1cc(C(=O)C(=O)N2CCCC[C@H]2C(=O)OC(CCCc2ccccc2)c2ccc(OCc3ccncc3)c(OCc3ccncc3)c2OCc2ccncc2)cc(OC)c1OC (stereo partly drawn)
A. 7.34

Q. Hello, please tell me recorded pKi for this one: COc1cc(C(=O)C(=O)N2CCCC[C@H]2C(=O)OC(CCCc2ccccc2)CCCc2ccccn2)cc(OC)c1OC (stereo partly drawn)
A. 8.19

Continuing:
Q. Hello, please tell me recorded pKi for this one: COc1ccc(C(=O)C(=O)N2CCCC[C@H]2C(=O)OC(CCCc2ccccc2)c2cccc(OCc3ccncc3)c2)cc1OC (stereo partly drawn)
A. 8.12

---

Exercise: state measured pKi for each of the compounds provided.
Molecular target: FKBP12 (Homo sapiens, UniProt P62942)
Sequence (P62942 whole entry): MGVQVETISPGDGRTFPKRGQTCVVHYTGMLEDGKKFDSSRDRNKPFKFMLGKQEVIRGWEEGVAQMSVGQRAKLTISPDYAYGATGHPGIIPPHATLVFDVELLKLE
Experiment: FKBP12 Binding Assay: inhibition of FKBP rotomase activity (cis-N-succinyl-Ala-Ala-Pro-Phe-p-nitroanilide / chymotrypsin), apparent Ki
Type: biochemical
Conditions: Table 2, formula II', compound 0.1 nM-10 μM
Answers are plain numbers, as −log10 of the molar value.

Study these solved cases before continuing.
Q. Hello, please tell me recorded pKi for this one: COc1cc(C(=O)C(=O)N2CCCC[C@H]2C(=O)OC(CCCc2ccccc2)c2cc(OCc3ccncc3)c(OCc3ccncc3)c(OCc3ccncc3)c2)cc(OC)c1OC (stereo partly drawn)
A. 8.30

Q. Hello, please tell me recorded pKi for this one: COc1cc(C(=O)C(=O)N2CCCC[C@H]2C(=O)OC(c2cc(OCc3ccncc3)c(OCc3ccncc3)c(OCc3ccncc3)c2)C(C)C)cc(OC)c1OC (stereo partly drawn) [compound 116]
A. 7.89

Q. Hello, please tell me recorded pKi for this one: COc1cc(C(=O)C(=O)N2CCCC[C@H]2C(=O)OC(CCCc2ccccc2)CCCc2ccc(C(=O)N3CCN(C)CC3)cc2)cc(OC)c1OC (stereo partly drawn)
A. 8.25

Q. Hello, please tell me recorded pKi for this one: COc1cc(C(=O)C(=O)N2CCCC[C@H]2C(=O)OC(C)c2cc(OCc3ccccc3)cc(OCc3ccccc3)c2)cc(OC)c1OC (stereo partly drawn)
A. 5.47

Q. Hello, please tell me recorded pKi for this one: "COc1cc(C(=O)C(=O)N2CCCC[C@H]2C(=O)OC(CCCc2cccnc2)CCCc2cccnc2)cc(OC)c1OC"
A. 8.43

Q. Hello, please tell me recorded pKi for this one: CCCC(OC(=O)[C@@H]1CCCCN1C(=O)C(=O)c1cc(OC)c(OC)c(OC)c1)c1cc(OCc2ccncc2)c(OCc2ccncc2)c(OCc2ccncc2)c1 (stereo partly drawn) [compound 80]
A. 7.77

Dear reader, for each entry below, please note its pKi.
1. COc1cc(C(=O)C(=O)N2CCCC[C@H]2C(=O)OC(CCCc2ccccc2)c2cccc(CO)c2)cc(OC)c1OC (stereo partly drawn)
2. C=CCOc1cc(C(=O)C(=O)N2CCCC[C@H]2C(=O)OC(CCCc2ccccc2)c2cccc(C(=O)c3ccncc3)c2)ccc1OC (stereo partly drawn)
3. COc1cc(C(=O)C(=O)N2CCCC[C@H]2C(=O)OC(CCCc2ccccc2)CCCc2ccc(C(=O)N3CCCCC3)cc2)cc(OC)c1OC (stereo partly drawn)
4. COc1cc(C(=O)C(=O)N2CCCC[C@H]2C(=O)OC(CCCc2ccccc2)CCCc2cccc(C(=O)NCc3ccccc3)c2)cc(OC)c1OC (stereo partly drawn)
5. COc1cc(C(=O)C(=O)N2CCCC[C@H]2C(=O)OC(CCCc2ccccc2)CCCc2ccc(C(=O)N3CCOCC3)cc2)cc(OC)c1OC (stereo partly drawn)
6. COc1cc(C(=O)C(=O)N2CCCC[C@H]2C(=O)OC(C)c2cc(OCc3ccncc3)c(C)c(OCc3ccncc3)c2)cc(OC)c1OC (stereo partly drawn)
7. COc1cc(C(=O)C(=O)N2CCCC[C@H]2C(=O)OC(CCCc2ccccc2)c2ccc(C(=O)c3ccncc3)cc2)cc(OC)c1OCc1ccccc1 (stereo partly drawn)
8. C=CC(OC(=O)[C@@H]1CCCCN1C(=O)C(=O)c1cc(OC)c(OC)c(OC)c1)c1cc(OCc2ccncc2)c(OCc2ccncc2)c(OCc2ccncc2)c1 (stereo partly drawn) [compound 78]

A.
1. 8.17
2. 7.77
3. 8.15
4. 7.40
5. 8.22
6. 7.44
7. 4.82
8. 7.14

Dear reader, for each entry below, please note its pKi.
1. COc1cc(C(=O)C(=O)N2CCC[C@H]2C(=O)OC(C)c2cc(OCc3ccncc3)c(OCc3ccncc3)c(OCc3ccncc3)c2)cc(OC)c1OC (stereo partly drawn) [compound 87]
2. COc1cc(C(=O)C(=O)N2CCCC[C@H]2C(=O)OC(CCCc2ccccc2)CCCc2ccc(C(=O)N3CCN(Cc4ccccc4)CC3)cc2)cc(OC)c1OC (stereo partly drawn)

A.
1. 6.44
2. 7.52

Dear reader, for each entry below, please note its pKi.
1. COc1cc(C(=O)C(=O)N2CCCC[C@H]2C(=O)OC(CCCc2cccnc2)c2cccnc2)cc(OC)c1OC (stereo partly drawn)
2. COc1cc(C(=O)C(=O)N2CCCC[C@H]2C(=O)OC(CCCc2ccccc2)c2cccc(C(=O)c3ccncc3)c2)cc(OC)c1OCc1ccccc1 (stereo partly drawn)
3. C=CCC(OC(=O)[C@@H]1CCCCN1C(=O)C(=O)c1cc(OC)c(OC)c(OC)c1)c1ccc(OCc2ccncc2)c(OCc2ccncc2)c1 (stereo partly drawn)
4. C=CCOc1c(OC)cc(C(=O)C(=O)N2CCCC[C@H]2C(=O)OC(CCCc2ccccc2)c2cccc(C(=O)c3ccncc3)c2)cc1OC (stereo partly drawn)

A.
1: 8.00; 2: 7.60; 3: 7.21; 4: 8.44

Dear reader, for each entry below, please note its pKi.
1. C=CC(OC(=O)[C@@H]1CCCCN1C(=O)C(=O)c1cc(OC)c(OC)c(OC)c1)c1cc(OCc2ccncc2)c(OCc2ccncc2)c(OCc2ccncc2)c1 (stereo partly drawn) [compound 79]
2. C=CCOCCCCC(CCCc1ccccc1)OC(=O)[C@@H]1CCCCN1C(=O)C(=O)c1cc(OC)c(OC)c(OC)c1 (stereo partly drawn)

A.
[8.64, 8.15]
